- assayName: growth inhibition, single agent or in combination, cell-based, chromothripsis tumors, cisplatin or BGB combos (AID 1671449);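 note: cells exposed for 96 hours; 0% = vehicle DMSO and 100% = killing by high DMSO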
- testContext: LFS_MB_P medulloblastoma cells, measured here: combination with cisplatin, at 0.5 µM, stronger effect = higher value
Outcome label depends on inhibition relative to -20%: at/above gives y, below gives n.

Consider the worked cases shown below.
NC1CCC(N[C@@H]2C[C@H]2c2ccccc2)CC1 (stereo not given in full) = y
CC(=O)[C@]1(N)Cc2c(O)c3c(c(O)c2[C@@H](O[C@H]2C[C@H](O)[C@H](O)CO2)C1)C(=O)c1ccccc1C3=O = y
COc1cc(C=O)c([N+](=O)[O-])cc1OC = y

Confirm if inhibition reported for the compound `CS(=O)(=O)c1ccc(-c2nnc(/C=C/c3nnc(-c4ccc(C#N)cc4)o3)n2-c2ccccc2Cl)nc1` is -20% or above.
y

Could you do the same for `O=C(/C=C/c1cccc(S(=O)(=O)Nc2ccccc2)c1)NO` , please?
y

Try the compound `CC(=O)Nc1ccc(C(=O)Nc2ccccc2N)cc1`
y

Next compound up: `COc1cc2ncnc(-n3nc(-c4ccccn4)nc3N)c2cc1OC`
n

And for COc1ccc(C(=O)CC2(O)C(=O)Nc3c(Cl)ccc(Cl)c32)cc1 (stereo not given) ?
n

Queued: `O=C(/C=C/c1ccc(CN(CCO)CCc2c[nH]c3ccccc23)cc1)NO`
n

Follow-up entry: `CN(C)Cc1c(C(=O)NCCOc2ccc(C(=O)NO)cc2)oc2ccccc12`
y

====

- assayName: viability loss in pontine glioma line – cell-based, SU-DIPG-IV, MIPE4.0, CellTiter-Glo, qHTS, dose response (AID 1347063);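 note: compound exposure lasted 48 hours before the viability readout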
- testContext: CellTiter-Glo ATP luminescence
Inconclusive results are not listed. The source made the active and inactive calls. Cut-off not given; nearly all actives show AC50 up to about 30 µM.
# output must be one of active, inactive

Cc1cc(Nc2cc(NC(=O)c3c(Cl)cccc3Cl)ccn2)nc(N)n1 = active
C[C@@]1(C(=O)Nc2ccc(F)nc2)CCCN1c1nc(Nc2cc(C3CC3)[nH]n2)c2cccn2n1 = active

Entry `C[C@@H](Oc1ccc2[nH]nc(/C=C/c3cnn(CCO)c3)c2c1)c1c(Cl)cncc1Cl` : call = ?
active

Field entry: COc1cc(O)c2c(c1)C1OC1C[C@H](O)[C@H](O)C(=O)/C=C\C[C@H](C)OC2=O (some centres undefined)
active

// next record `CC(C)(C)c1cc(C(=O)O)c(NC(=O)Nc2ccc3[nH]ncc3c2)s1`
inactive

What do we get for OC[C@H]1OC(O)C[C@@H](O)[C@@H]1O (some centres undefined) ?
inactive

====

Reported cell count values follow for various compounds
- assayName: viability loss with induced miR-34 in A549 – imaging, A549 dox-inducible miR-34, nuclei and caspase counts, primary screen (AID 1347080)
- testContext: A549 miR-34 inducible, Hoechst nuclei count, 48 h; measured here: total cells without miR-34 induction
Kindly provide the number alone.

Example compounds with recorded cell count:
CCCCCCCCCC(=O)N[C@@H](Cc1c[nH]c2ccccc12)C(=O)N[C@@H](CC(N)=O)C(=O)N[C@@H](CC(=O)O)C(=O)N[C@@H]1C(=O)NCC(=O)N[C@@H](CCCN)C(=O)N[C@@H](CC(=O)O)C(=O)N[C@H](C)C(=O)N[C@@H](CC(=O)O)C(=O)NCC(=O)N[C@H](CO)C(=O)NC([C@@H](C)CC(=O)O)C(=O)N[C@@H](CC(=O)c2ccccc2N)C(=O)OC1C (some centres undefined) = 8980
OC[C@H]1NC[C@H](O)[C@@H](O)[C@@H]1O = 5180
CCCCC[C@H](O)/C=C/[C@H]1[C@H](O)CC(=O)[C@H]1C/C=C\CCCC(=O)O = 5910

Pending compound:
I would be grateful if you could share the reported cell count for `COc1ccc(/C=C\c2cc(OC)c(OC)c(OC)c2)cc1O` .
1010

====

- assayName: BT084 cell growth, single and combined drugs, ICGC_MB145, cisplatin and BGB IC40 combos (AID 1671461);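 note: cells exposed to drugs for 96 hours; 0% = vehicle DMSO and 100% = high DMSO full killing control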
- testContext: BT084 medulloblastoma cells, drug combinations, cisplatin combination, at 5 µM, stronger effect = higher value
outcomeMeasure: inhibition
Field note: include the unit after the figure.

Reference set (5 entries):
CN(C)Cc1c(C(=O)NCCOc2ccc(C(=O)NO)cc2)oc2ccccc12 = 101%
CN(C)c1ccc(C(=O)NCCCCCCC(=O)NO)cc1 = 101%
O=C(/C=C/c1cccc(S(=O)(=O)Nc2ccccc2)c1)NO = 102%
CN[C@@H]1CN(c2ccc3c(=O)c(C(=O)O)cn(-c4nccs4)c3n2)C[C@H]1OC = 37.6%
O=C(O)[C@H](Cc1c[nH]c2ccccc12)N1C(=O)c2ccccc2C1=O = -3.75%

Give the measured inhibition of `Cc1cn([C@@H]2O[C@H](CO)[C@@H](O)[C@@H]2F)c(=O)[nH]c1=O` .
-127%

Same question, `Nc1ccccc1NC(=O)c1ccc(CNc2nccc(-c3cccnc3)n2)cc1` this time
83.4%

`Cc1ccc([N+](=O)[O-])cc1S(=O)(=O)N(C)/N=C/c1cnc2ccc(Br)cn12` , same question.
-42.9%

Also, `O=c1cc(N2CCOCC2)oc2c(-c3cccc4c3sc3ccccc34)cccc12` please.
-216%

# repeat for `C[C@]12CCCN1CC1=NNC(=O)c3cc(F)cc4[nH]c2c1c34`
-25.6%

Can you handle `O=C(COc1cccc2c(=O)[nH]ccc12)c1ccccc1` next?
-2.7%

====

This section presents compounds with their documented viability values.
- assayName: drug combination growth inhibition, ovarian cancer – cell-based, oncology-focused library, rucaparib conditional, profiling panel (AID 1508598)
- testContext: patient-derived ovarian cancer cells, CellTiter-Glo viability, 144 h; at 0.00122 µM; OCI-P5x cells; with rucaparib 20 µM; stronger effect = lower value; 100% = cells with rucaparib alone
Please reply with the bare figure in % and do not write the unit itself.

Fc1cc(-c2cccc3ncc(-c4cnn(C5CCNCC5)c4)nc23)cc(F)c1CN1CCOCC1 = 18.8
COc1cc(Nc2nc3ccccc3nc2NS(=O)(=O)c2ccc(NC(=O)c3ccc(C)c(OC)c3)cc2)cc(OC)c1 = 104
CN1CCN(CCOc2cc(OC3CCOCC3)c3c(Nc4c(Cl)ccc5c4OCO5)ncnc3c2)CC1 = 102
CCOc1cc2ncc(C#N)c(Nc3ccc(F)c(Cl)c3)c2cc1NC(=O)/C=C/CN(C)C = 105
Cc1nc(Nc2n[nH]c3c2CN(C(=O)N[C@H](CN(C)C)c2ccccc2)C3(C)C)c2sccc2n1 = 102

Look up viability for this compound: `CC(C)c1cc(-c2n[nH]c(=O)n2-c2ccc3c(ccn3C)c2)c(O)cc1O`
124

Next record, please: `Cc1cc(Nc2cc(N3CCN(C)CC3)nc(/C=C/c3ccccc3)n2)n[nH]1`
110

Then what about the compound `O=c1cc(N2CCOCC2)oc2c(-c3cccc4c3sc3ccccc34)cccc12` ?
103

Check `COCCn1c2c([n+](Cc3cnccn3)c1C)C(=O)c1ccccc1C2=O` too.
128

Another compound to look at: `CC(C)n1nc(-c2ccc3oc(N)nc3c2)c2c(N)ncnc21`
92.7

Please give the result for `CC1(COc2ccc3c(c2)ncn3-c2ccc3cccc(N4CCC(N)CC4)c3n2)COC1` too.
119

Please give the result for `CNC(=O)c1cc(Oc2ccc(NC(=O)Nc3cc(C(C)(C)C)nn3-c3ccc4ncccc4c3)c(F)c2)ccn1` too.
110

// same read-out, input: `CCOc1ccn(-c2ccc(F)cc2)c(=O)c1C(=O)Nc1ccc(Oc2ccnc(N)c2Cl)c(F)c1`
99.9

Do the same for `O=C(NOC[C@H](O)CO)c1ccc(F)c(F)c1Nc1ccc(I)cc1F` please
73.1

# iterate: `C[C@H](NC(=O)Cc1cc(F)cc(F)c1)C(=O)N[C@@H]1C(=O)N(C)c2ccccc2-c2ccccc21`
93.1

====

- assayName: growth inhibition of DIPG cells – cell-based, MIPE5.0 library, qHTS (AID 1347068);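 for IC50: cells exposed to compound for 48 hours before viability readout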
- testContext: SU-DIPG-XXV viability
Records with an inconclusive call do not appear. Activity calls are given as the source filed them. Cut-off not given; nearly all actives show IC50 up to about 30 µM.
Permitted responses: active, inactive

CCOC(CN1C(=O)[C@](CC(=O)Nc2ccc(C)cc2)(NC(=O)Nc2ccc(C)cc2)c2ccccc21)OCC = active

Identify the outcome logged in this assay for the molecule shown: `CCc1c(-c2ccccc2C)nc2c(C#N)c[nH]n2c1=O`
inactive

====

- assayName: growth inhibition, single agent and combos, cell-based, chromothripsis tumors, cisplatin or BGB combos (AID 1671450);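 note: cells exposed to compound for four days; 0% = vehicle DMSO and 100% = cell killing by high DMSO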
- testContext: HDN33 neuroblastoma cells, measured here: with cisplatin IC20 combination, at 0.5 µM, stronger effect = higher value
outcomeMeasure: inhibition (%)
Your answer should be a plain number; it is taken to be in %.

These solved cases illustrate the format of a correct answer.
COc1cc(C=O)c([N+](=O)[O-])cc1OC = -29.9
Nc1nc2n[nH]nc2c(=O)[nH]1 = -5.82
CN(C)c1ccc(C(=O)NCCCCCCC(=O)NO)cc1 = 50.9
CC(=O)Nc1nc(C)c(-c2ccc(Cl)c(S(=O)(=O)NCCO)c2)s1 = 24.2
NC1CCC(N[C@@H]2C[C@H]2c2ccccc2)CC1 (stereo partly specified) = -4.58

# evaluate next
Which inhibition reading was recorded for the molecule `Nc1ccccc1NC(=O)c1ccc(CNc2nccc(-c3cccnc3)n2)cc1` ?
50.6
